System: p70S6K(h)
Test: Protein kinase selectivity panel
Type: biochemical, human
Conditions: 1.0 μM compound, 10 μM ATP
Quantity measured: Activity at Protein Kinase Assays (% of control), p70S6K(h)

See these solved cases before continuing.
O=C1NC(=O)C2=C1c1cn(c3ccccc13)CCCc1ccc(c(N3CCCC3)n1)CCCn1cc2c2ccccc21 : 84 % of control
O=C1NC(=O)C2=C1c1cn(c3ccccc13)CCCc1cc(nc(N3CCCC3)c1)CCCn1cc2c2ccccc21 : 95 % of control
CN(C)c1cc2cc(n1)CCCn1cc(c3ccccc31)C1=C(C(=O)NC1=O)c1cn(c3ccccc13)CCC2 : 91 % of control

Report measured Activity at Protein Kinase Assays (% of control), p70S6K(h); entry is CN(C)c1nc2ccc1CCCCn1cc(c3ccccc31)C1=C(C(=O)NC1=O)c1cn(c3ccccc13)CCC2
98 % of control

* * *

Target: CDK3/cyclinE(h) (Homo sapiens)
Sequence (Q00526 whole entry): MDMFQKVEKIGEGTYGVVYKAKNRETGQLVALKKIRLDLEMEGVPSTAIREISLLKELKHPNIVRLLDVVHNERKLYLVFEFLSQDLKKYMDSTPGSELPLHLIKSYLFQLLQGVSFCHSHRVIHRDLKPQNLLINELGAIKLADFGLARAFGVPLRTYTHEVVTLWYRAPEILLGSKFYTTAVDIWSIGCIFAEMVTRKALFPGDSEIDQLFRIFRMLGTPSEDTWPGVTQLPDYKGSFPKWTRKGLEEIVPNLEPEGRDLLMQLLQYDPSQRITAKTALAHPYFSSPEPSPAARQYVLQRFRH
Sequence (P24864 whole entry partner): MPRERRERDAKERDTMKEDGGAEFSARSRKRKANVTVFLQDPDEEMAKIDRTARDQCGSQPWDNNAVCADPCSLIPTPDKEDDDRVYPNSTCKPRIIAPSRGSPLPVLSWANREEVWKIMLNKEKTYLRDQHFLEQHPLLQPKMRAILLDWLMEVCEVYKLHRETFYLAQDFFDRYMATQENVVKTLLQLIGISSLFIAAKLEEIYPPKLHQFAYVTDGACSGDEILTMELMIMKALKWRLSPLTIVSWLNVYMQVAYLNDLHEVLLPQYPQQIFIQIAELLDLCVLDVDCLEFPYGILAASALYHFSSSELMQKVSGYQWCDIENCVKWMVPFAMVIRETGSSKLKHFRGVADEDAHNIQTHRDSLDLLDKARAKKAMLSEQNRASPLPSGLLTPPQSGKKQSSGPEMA
Experiment: Protein kinase selectivity panel
Type: biochemical
Settings: 1.0 μM compound, 10 μM ATP
Overview of reported Activity at Protein Kinase Assays (% of control), CDK3/cyclinE(h) across a group of compounds:

See these solved cases before continuing.
CN(C)c1cc2cc(n1)CCCn1cc(c3ccccc31)C1=C(C(=O)NC1=O)c1cn(c3ccccc13)CCC2 : 89 % of control
O=C1NC(=O)C2=C1c1cn(c3ccccc13)CCCc1ccc(c(N3CCCC3)n1)CCCn1cc2c2ccccc21 : 106 % of control

Recall the reported Activity at Protein Kinase Assays (% of control), CDK3/cyclinE(h) of CN(C)c1nc2ccc1CCCCn1cc(c3ccccc31)C1=C(C(=O)NC1=O)c1cn(c3ccccc13)CCC2 when tested on CDK3/cyclinE(h) (Homo sapiens).
59 % of control

Recall the reported Activity at Protein Kinase Assays (% of control), CDK3/cyclinE(h) of O=C1NC(=O)C2=C1c1cn(c3ccccc13)CCCc1cc(nc(N3CCCC3)c1)CCCn1cc2c2ccccc21 when tested on CDK3/cyclinE(h) (Homo sapiens).
86 % of control

* * *

Target: CDK6/cyclinD3(h) (Homo sapiens, UniProt Q00534)
Sequence (Q00534 whole entry): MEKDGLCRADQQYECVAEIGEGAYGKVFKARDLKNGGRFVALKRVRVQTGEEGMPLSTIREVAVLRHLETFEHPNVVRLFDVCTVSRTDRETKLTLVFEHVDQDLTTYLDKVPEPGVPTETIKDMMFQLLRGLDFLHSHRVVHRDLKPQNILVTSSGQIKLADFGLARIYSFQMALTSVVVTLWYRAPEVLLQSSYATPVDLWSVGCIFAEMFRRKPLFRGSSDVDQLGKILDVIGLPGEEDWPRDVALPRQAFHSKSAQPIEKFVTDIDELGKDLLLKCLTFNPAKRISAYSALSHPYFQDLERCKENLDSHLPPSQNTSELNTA
Sequence (P30281 whole entry partner): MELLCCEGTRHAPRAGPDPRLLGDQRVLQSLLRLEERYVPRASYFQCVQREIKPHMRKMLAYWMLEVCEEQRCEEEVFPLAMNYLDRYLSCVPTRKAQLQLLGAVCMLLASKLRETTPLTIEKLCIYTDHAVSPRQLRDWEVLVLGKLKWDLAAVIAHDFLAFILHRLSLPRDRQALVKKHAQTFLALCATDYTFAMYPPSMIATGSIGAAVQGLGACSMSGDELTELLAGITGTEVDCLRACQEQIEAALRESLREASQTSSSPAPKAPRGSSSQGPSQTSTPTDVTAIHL
Assay: Protein kinase selectivity panel
Type: biochemical
Conditions: 1.0 μM compound, 10 μM ATP
Quantity measured: Activity at Protein Kinase Assays (% of control), CDK6/cyclinD3(h)

Report measured Activity at Protein Kinase Assays (% of control), CDK6/cyclinD3(h); entry is CN(C)c1nc2ccc1CCCCn1cc(c3ccccc31)C1=C(C(=O)NC1=O)c1cn(c3ccccc13)CCC2 [Cpd 1]
86 % of control

Report measured Activity at Protein Kinase Assays (% of control), CDK6/cyclinD3(h); entry is CN(C)c1cc2cc(n1)CCCn1cc(c3ccccc31)C1=C(C(=O)NC1=O)c1cn(c3ccccc13)CCC2 [Cpd 2]
74 % of control

Report measured Activity at Protein Kinase Assays (% of control), CDK6/cyclinD3(h); entry is O=C1NC(=O)C2=C1c1cn(c3ccccc13)CCCc1ccc(c(N3CCCC3)n1)CCCn1cc2c2ccccc21 [Cpd 7]
92 % of control

Report measured Activity at Protein Kinase Assays (% of control), CDK6/cyclinD3(h); entry is O=C1NC(=O)C2=C1c1cn(c3ccccc13)CCCc1cc(nc(N3CCCC3)c1)CCCn1cc2c2ccccc21 [Cpd 6]
82 % of control
